Cited source: PubChem BioAssay AID1159580

# EXPERIMENTAL PROTOCOL: chemical genetic growth profiling, strain panel (AID 1159580);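 further: tested at 20 µM; growth read once vehicle control cultures reached saturation at 30 °C; 1 = growth at the plate median or of vehicle wells; lower values mean less growth of the strain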
# APPLIED CONDITIONS: S. cerevisiae deletion strains, growth OD, locus YDR335W, strain msn5, hits give low values
Screen size: about 5,500 compounds; about 2,000 (36%) were called active. About 18% were inconclusive and are not listed. Some of the results follow.
ATTRIBUTE MEASURED: normalized growth
Keep it simple and answer with nothing but the number.

[
  {
    "COMPOUND": "CCN(CC)C(C)CN1c2ccccc2Sc2ccccc21 (stereo not drawn)",
    "NUMBER": 0.959
  },
  {
    "COMPOUND": "CC(CN(C)C)CN1c2ccccc2CCc2ccccc21 (stereo not drawn)",
    "NUMBER": 0.975
  }
]

Kindly review the next compound as well.
Form field normalized growth, entry CNCCCN1c2ccccc2CCc2ccccc21 : 1.02

---

# EXPERIMENTAL PROTOCOL: chemical genetic growth profiling, strain panel (AID 1159580);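 further: tested at 20 µM; growth read once vehicle control cultures reached saturation at 30 °C; 1 = growth at the plate median or of vehicle wells; lower values mean less growth of the strain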
# APPLIED CONDITIONS: S. cerevisiae deletion strains, growth OD, locus YFR003C, strain YPI1, hits give low values
Screen size: about 5,500 compounds; about 2,000 (36%) were called active. Roughly 18% stayed inconclusive and do not appear here. The list shows a part of the results.
ATTRIBUTE MEASURED: normalized growth
// no unit string in output, number only

So for Cc1nn(Cc2nnc(SCc3cccc(C(F)(F)F)c3)o2)c(C)c1Br , the logged normalized growth turned out to be 0.971

// field: normalized growth; key: O=[N+]([O-])c1ccc(-c2csc(Nc3ccncc3)n2)cc1 ; value = 0.98

Field normalized growth (entry CC1C/C(=N/Nc2ccc(Br)cc2)c2cc(Cl)ccc2S1 (centres undefined) ) reads 0.433

For this compound ( Oc1ccc(N=Nc2ccccn2)c(O)c1 ), measured normalized growth is 0.0966

Field normalized growth (entry COc1ccc(CC2CCC(=NOC(=O)c3ccc(C(C)(C)C)cc3)CC2)cc1 (centres undefined) ) reads 0.983

Field normalized growth (entry COc1ccc(C(=O)NCc2csc3ccc(Cl)cc23)cc1OC ) reads 0.977

Data point: CC1(C)c2ccccc2N(CCC(N)=O)C12C=Cc1c(ccc3ccccc13)O2 (centres undefined) ; normalized growth = 0.959

normalized growth for O=C1CSC(c2ccc(C(F)(F)F)cc2)N1c1ccc(C(F)(F)F)cc1 (centres undefined) is 0.994

---

# EXPERIMENTAL PROTOCOL: chemical genetic growth profiling, strain panel (AID 1159580);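 further: tested at 20 µM; growth read once vehicle control cultures reached saturation at 30 °C; 1 = growth at the plate median or of vehicle wells; lower values mean less growth of the strain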
# APPLIED CONDITIONS: S. cerevisiae deletion strains, growth OD, locus YNL071W, strain lat1, hits give low values
The whole screen tested about 5,500 compounds, of which about 2,000 (36%) were called active. Roughly 18% stayed inconclusive and do not appear here. The list shows a part of the results.
ATTRIBUTE MEASURED: normalized growth

// solved cases for normalized growth follow
[
  {
    "MOLECULE": "C[C@@H]1CC2C3C[C@H](F)C4=CC(=O)C=C[C@]4(C)[C@@]3(F)[C@@H](O)C[C@]2(C)[C@@]1(O)C(=O)COC(=O)C(C)(C)C (stereo not given in full)",
    "RESULT": "1 (inactive)"
  },
  {
    "MOLECULE": "C[C@H](CCC(=O)O)[C@H]1CCC2C3C(CC[C@@]21C)[C@@]1(C)CC[C@@H](O)C[C@H]1C[C@@H]3O (stereo not given in full)",
    "RESULT": "1.01 (inactive)"
  },
  {
    "MOLECULE": "CC[C@H](CCC(C)[C@H]1CCC2C3CCC4C[C@@H](O)CC[C@]4(C)C3CC[C@@]21C)C(C)C (stereo not given in full)",
    "RESULT": "0.974 (inactive)"
  }
]

Form field normalized growth, entry O=C(O)CCC(=O)Nc1ccc(S(=O)(=O)Nc2nccs2)cc1 : 1.01 (inactive)

Reported normalized growth for C[C@H](CCC(=O)O)[C@H]1CCC2C3C(CC[C@@]21C)[C@@]1(C)CC[C@@H](O)C[C@H]1C[C@H]3O (stereo not given in full) was 1.01 (inactive)

// sample O=C(O)c1ccccc1C(=O)Nc1ccc(S(=O)(=O)Nc2nccs2)cc1 , its normalized growth was 0.987 (inactive)

normalized growth for CC(C)CCCC(C)C1CCC2C3CC[C@H]4CCCC[C@]4(C)C3CC[C@]12C (stereo not given in full) is 1.01 (inactive)

normalized growth measured on c1ccc2nc(N3CCNCC3)ccc2c1 = 0.999 (inactive)

molecule COC(=O)CCC(C)[C@H]1CCC2C3C(C[C@H](O)[C@@]21C)[C@@]1(C)CC[C@@H](O)C[C@H]1C[C@H]3O (stereo not given in full) , normalized growth observed: 1.01 (inactive)

Record summary for NC(Cc1ccc(F)cc1)C(=O)O (stereo not given) : reported normalized growth = 1 (inactive)

GET /value?item= CNC(=O)Oc1ccc2c(c1)[C@]1(C)CCN(C)[C@@H]1N2C &field=normalized growth returns 1.01 (inactive)

Notebook: CC1CCC2(OC1)OC1CC3C4CCC5C[C@@H](O)CCC5(C)C4=CCC3(C)C1[C@@H]2C (stereo not given in full) , normalized growth read as 1.02 (inactive)

// recorded normalized growth for N[C@H](Cc1ccccc1)C(=O)O : 0.983 (inactive)

Lookup result for CN1CCN(C2=Nc3ccccc3Oc3ccc(Cl)cc32)CC1 ; measured normalized growth: 1 (inactive)

Measured normalized growth, C[C@@H]1CC2C3CCC4=CC(=O)C=C[C@]4(C)[C@@]3(F)[C@@H](O)C[C@]2(C)[C@H]1C(=O)CO (stereo not given in full) : 0.999 (inactive)
